For each entry below, report its melting point value.

Some solved cases for reference:
compound	recorded-measurement
CCOc1cccc(CC(=O)O)c1	89 to 91 °C
CCn1c(SCC(=O)N2c3ccccc3Sc3ccccc32)nnc1-c1ccco1	152 to 154 °C
CC(=O)Nc1cccc2c1CCNC2	141 to 143 °C
O=C1CCCc2cc(O)ccc2N1	219 to 221 °C
O=C(CCl)Nc1ccc(Br)cc1F	133 to 135 °C
COC(=O)c1cc(N)cc([N+](=O)[O-])c1	159 to 161 °C
O=C(O)C1CCCc2sccc21 (configuration not stated)	79 to 81 °C
CNC1(CO)CCC(c2ccccc2)CC1 (configuration not stated)	127 to 129 °C

// for each compound below, give its melting point
1. COC(=O)c1cc(S(=O)(=O)Cl)cn1C
2. NC(=O)c1ccccc1Oc1cccc(N)c1

1. 78 to 80 °C
2. 129 to 131 °C

Below are some compounds; for each one, tell me its melting point.
1. Cc1ccc2c(CCC(=O)O)c[nH]c2c1
2. O=C(O)c1ccc(CN2C(=O)c3ccccc3C2=O)cc1
3. CS(=O)c1nnc[nH]1 (configuration not stated)
4. N#Cc1c([N+](=O)[O-])cccc1S(=O)(=O)Cl
5. Cc1cc(NC(=O)C2CC2)sc1C(=O)O

1. 127 to 129 °C
2. 258 to 260 °C
3. 119 to 121 °C
4. 89 to 91 °C
5. 184 to 186 °C

Batch request: melting point for each of the following compounds.
1. CC(C)(C)c1ccc2c(c1)C(O)CC2 (configuration not stated)
2. CC(O)Cc1ccc2ccccc2n1 (configuration not stated)
3. CNC(=O)c1n[nH]c(=O)c2ccccc12
4. COC(=O)c1ccncc1C(=O)O

1. 73 to 75 °C
2. 64 to 66 °C
3. 283 to 285 °C
4. 175 to 177 °C

Each of the following entries comes with a recorded value; kindly state melting point for each.
1. O=C(O)C1CCCN1C(=O)C1CCCC1 (configuration not stated)
2. COc1ccccc1CNCCO
3. Cc1ccc(NS(=O)(=O)c2ccc(Cl)c(C(=O)O)c2)cc1C
4. Nc1ccc(S(=O)(=O)Nc2cccc(C(F)(F)F)c2)cc1N
5. Cn1ccnc1C(N)c1ccc(Cl)cc1 (configuration not stated)
6. COc1ccc2c(c1)C(=NO)C(=O)N2

1. 125 to 127 °C
2. 65 to 67 °C
3. 207 to 209 °C
4. 143 to 147 °C
5. 45 to 49 °C
6. 236 to 238 °C

###

Please respond with reported melting point for every item in the list.

// solved cases for melting point follow
molecule	melting point
O=C(O)CC1OCCc2ccsc21 (centres undefined)	109 to 111 °C
CC(C)NCCc1nc(-c2ccc(S(C)(=O)=O)cc2)c[nH]1	264 to 266 °C
CC(C)(C)c1ccc(CC(C#N)C(N)=O)cc1 (centres undefined)	143 to 145 °C

Endpoint output: melting point of O=C(O)CC=Cc1ccc(F)cc1 . Value?
111 to 113 °C

###

What melting point was measured for each of the following?

molecule	melting point
CC(C)CS(=O)(=O)CC(=O)O	46 to 48 °C
COCCN(C)S(N)(=O)=O	34 to 36 °C
N#Cc1cnn(-c2ccccc2)n1	90 to 92 °C
Cc1sc2nc(C(C)Cl)[nH]c(=O)c2c1C (stereo not drawn)	215 to 217 °C
NC(=O)c1ccc(I)cc1	216 to 218 °C
Nc1cc(Cl)ccc1C(=O)N1CCCC1	118 to 120 °C
Nc1cccc(C(=O)NCC(F)(F)F)c1	118 to 120 °C
Cc1ccc2[nH]c3c(c2c1)CC(C)(C)CC3	114 to 116 °C

Provide reported melting point for each item, in the same order as listed.
1. Cc1ccnc(-n2cc(S(N)(=O)=O)cn2)c1
2. C=CCNC(=O)c1ccc(N)cc1
3. Cc1cc(C)c(OCC(=O)O)c(C)c1

156 to 158 °C
78 to 80 °C
150 to 152 °C

All figures here come from a melting point compilation (Tetko et al.).
